Assay Text: Storage stability of microencapsulated fish oil fatty acids
Assay type: physicochemical
Experimental Setup: d = 60; 45° C.
List of % in the oil values.
Write down the numeric answer in % in the oil and omit the unit.

Smiles Str: CCCCCCCCCCCCCCCCCC(=O)O
% in the oil, % in the oil: 1.3
--
Smiles Str: CC/C=C\C/C=C\C/C=C\CCCCCCCC(=O)O
% in the oil, % in the oil: 2.4
--
Smiles Str: CCCCCCCC/C=C\CCCCCCCC(=O)O
% in the oil, % in the oil: 2.4

Query: Data request, read-out % in the oil, for `CCCCCCCCCCCCCCCC(=O)O`
Result: 1.1

Query: Data request, read-out % in the oil, for `CCCCC/C=C\C/C=C\CCCCCCCC(=O)O`
Result: 2.5

The values you see were collected from patent US20070077308A1.
